Target or system: HLA-DRB3*0101 (human)
Assay method text: competition binding
Measurement conditions: modification not given
Catalogue of binders with associated IC50
Respond with the bare value in µM.

Look over these answered cases.
Binder: AEITLTWQRDGEDQT [p42]
IC50 [µM]: 30
//
Binder: PRFIAVGYVDDTQFV [p4]
IC50 [µM]: 0.196
//
Binder: TCVEWLRRYLENGKE [p34*]
IC50 [µM]: 58.1

Looking up APWIEQEGPEYWDGE [p10] , I found its IC50 recorded as 75
